The origin of these recorded values is patent US20230295324A1.

# target or test system: T1, human OX40 protein (Acro biosystem, #OX0-H5224) (human, UniProt P43489 29-216)
# T1 construct: Bought recombinant protein
# T1 sequence (looked up): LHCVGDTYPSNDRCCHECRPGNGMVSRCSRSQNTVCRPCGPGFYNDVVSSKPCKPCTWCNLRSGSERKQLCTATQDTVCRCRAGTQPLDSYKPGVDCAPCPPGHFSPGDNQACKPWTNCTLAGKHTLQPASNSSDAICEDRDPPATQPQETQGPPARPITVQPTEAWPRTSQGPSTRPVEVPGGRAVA
# run description: ELISA, coated human OX40 protein
endpoint label: Maximum OD (OD)
Please reply with the bare figure in OD and do not write the unit itself.

binder | endpoint label | result value
PR002063 (antibody, human IgG1, V domains shown, no light chain; also called anti-OX40 HCAb antibody) VH: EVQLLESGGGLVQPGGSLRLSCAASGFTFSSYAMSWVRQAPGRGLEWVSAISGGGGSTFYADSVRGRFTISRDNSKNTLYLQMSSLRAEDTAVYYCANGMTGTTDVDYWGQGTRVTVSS | Maximum OD | 2.28

Let us move to another entry and its Maximum OD.
Quick one: Maximum OD for PR002061 (antibody, human IgG1, V domains shown, no light chain; also called anti-OX40 HCAb antibody) VH: EVQLLESGGGLVQPGGSLRLSCAASGFTFSSYAMSWVRQAPGKGLEWVSAISGRGGSTYYADSVRGRFTISRDNSKNTLYLQMNSLRAEDTAVYYCANGMTGTTDVDYWGQGTLVTVSS ?
1.96
